- Target desc: RutR AcK7/11 K7AcK;K11AcK (Escherichia coli K12?)
- Test summary: SPR
- Condition notes: ITC: 100 mM potassium phosphate pH 6.4, 150 mM NaCl, 5 mM MgCl2, 2 mM b-ME, 20 or 25 C; SPR: 100 mM potassium phosphate pH 6.4, 300 mM NaCl, 0.05% Tween20 …
Property name: Kd (nM)
Number in nM, nothing else.

Could you tell me which Kd is on file for GTTTTATGTGCAACTGTTTTGACCGTTTAGTCCACTTTTTACCAGATATTTTAG (double strand) [biotin-boxrutA] ?
76.2

* * *

- Target desc: RutR AcK62 K62AcK (Escherichia coli K12?)
- Test summary: ITC
- Condition notes: ITC: 100 mM potassium phosphate pH 6.4, 150 mM NaCl, 5 mM MgCl2, 2 mM b-ME, 20 or 25 C; SPR: 100 mM potassium phosphate pH 6.4, 300 mM NaCl, 0.05% Tween20 …
Property name: pKd
pKd field: float, defined as -log10 of concentration (mol/L).

Could you tell me which pKd is on file for GTTTTAATGTAAATTTTGACCATTTGGTCCACTTTTTTCTGCTCGT (double strand) [boxcarA] ?
5.95
